Ref: the supplement of paper PMC13380429

Test system: Calu-3
Assay notes: cell viability relative to DMSO; higher = less toxic
Condition details: 72 h; 10 nM
Consider the following compounds; for each one, report its cell viability.
One number for each entry, in %.

Compound: c1ccc(Cn2c(-c3ccc(OC[C@H](C4CCNCC4)n4c(-c5ccccc5)nc5ccccc54)cc3)nc3ccccc32)cc1
Assay value: 102

Hey, can you go through the list below and give me cell viability for every item?
1. C[C@H](NC(=O)CNC(=O)c1cccc(Cl)c1)c1ccccc1
2. NC(N)=Nc1nc(CSCC/C(N)=N/S(N)(=O)=O)cs1 [famotidine]
3. CC[C@@H](CO)NC(=O)[C@@H]1C=C2c3cccc4c3c(cn4C)C[C@H]2N(C)C1 [methysergide]

[95.1, 91.5, 99.1]

###

Tested on: HepG2
Assay notes: drug sensitivity score (DSS) for viability; higher = more toxic; extreme values may be limits of the assay
Condition details: 72 h
Observation type: drug sensitivity score
Give bare numbers.

Worked examples, 10 compounds total:
Compound: O=c1[nH]c(=O)n([C@H]2CCCO2)cc1F (racemic) [ftorafur]
drug sensitivity score: 0

Compound: O=C1N(c2ccccc2)c2ccccc2C1(Cc1ccncc1)Cc1ccncc1 [linopirdine]
drug sensitivity score: 0

Compound: O=S(=O)(N[C@H]1CC[C@@](c2cc(F)ccc2F)(S(=O)(=O)c2ccc(Cl)cc2)CC1)C(F)(F)F [MRK-560]
drug sensitivity score: 2.1

Compound: O=C(O)C1=CCNCC1 [isoguvacine]
drug sensitivity score: 0

Compound: Nc1nc(O)c2[nH]nnc2n1 [azaguanine-8]
drug sensitivity score: 3.4

Compound: c1ccc(-c2n[nH]cc2-c2ccnc3ccccc23)nc1
drug sensitivity score: 0

Compound: COc1ccc2cccc(CCNC(C)=O)c2c1 [agomelatine]
drug sensitivity score: 0

Compound: CCOc1ccc(Cc2cc([C@@H]3O[C@H](SC)[C@@H](O)[C@H](O)[C@H]3O)ccc2Cl)cc1 [sotagliflozin]
drug sensitivity score: 0

Compound: CCCc1c(-c2ccc(O)cc2)nn(-c2ccc(O)cc2)c1-c1ccc(O)cc1 [PPT]
drug sensitivity score: 0

Compound: CCNC(=O)N1CCN(CCCC(c2ccc(F)cc2)c2ccc(F)cc2)CC1 [amperozide]
drug sensitivity score: 0

Please look at the items below and tell me drug sensitivity score for each one, in order.
1. CCc1ccc(Cc2ccc3c(c2)[C@]2(OC3)O[C@H](CO)[C@@H](O)[C@H](O)[C@H]2O)cc1 [tofogliflozin]
2. c1ccc2c(-c3cnn4cc(-c5ccc(N6CCNCC6)cc5)cnc34)ccnc2c1
3. C[C@]12CCC(=O)C[C@@H]1CC[C@@H]1[C@@H]2CC[C@]2(C)C=CC[C@@H]12 [androstenone]

1. 0
2. 9.3
3. 0

For every record below, what is its drug sensitivity score?
1. O=C(COc1ccc(Cl)cc1)N1CCN(Cc2ccc3c(c2)OCO3)CC1 [fipexide]
2. Nc1sc2c(c1C(=O)c1ccc(Cl)cc1)CCCC2 [T-62]
3. [N-]=[N+]=N[C@]1(CO)O[C@@H](n2ccc(N)nc2=O)[C@H](O)[C@@H]1O [R-1479]
4. CCOc1ccc(-n2c([C@@H](C)N(Cc3cccnc3)C(=O)Cc3ccc(F)c(C(F)(F)F)c3)nc3ncccc3c2=O)cc1 (racemic)
5. CC/C(=C(/c1ccc(OCCN(C)C)cc1)c1cccc(O)c1)c1ccccc1 [droloxifene]

1. 0
2. 0
3. 0
4. 0
5. 2.2

// each listed compound needs a value for drug sensitivity score
1. CC(=O)[C@H]1CC[C@H]2[C@@H]3C[C@H](C)C4=CC(=O)CC[C@]4(C)[C@H]3[C@@H](O)C[C@]12C [medrysone]
2. NC(=O)c1ccc(-c2nc(-c3ccccn3)c(-c3ccc4c(c3)OCO4)[nH]2)cc1
3. COc1cc2c(cc1O)C(CCc1ccc(Cl)cc1)N(C)CC2 (configuration not stated) [Ro-04-5595]
4. CN(C)CCc1c[nH]c2ccc(Cn3cncn3)cc12 [rizatriptan]
5. CCCCC/C=C\C=C\CCCCCCCCC(=O)O [trans-10,cis-12-conjugated-linoleic-acid]

[0, 0.7, 0.7, 0, 0]

Lab note: each compound below needs its drug sensitivity score filled in.
1. Oc1ccc([C@@H]2Oc3ccc(O)cc3[C@@H]3CCC[C@@H]32)cc1 [erteberel]
2. CC(=O)N(c1onc(C)c1C)S(=O)(=O)c1ccc(N)cc1 [sulfisoxazole-acetyl]
3. CCc1oc2ccccc2c1C(=O)c1cc(Br)c(O)c(Br)c1 [benzbromarone]
4. COc1ccc2c(c1)/C(=C/c1cnc[nH]1)C(=O)N2 [SU9516]

1. 2
2. 0
3. 0
4. 3.5

Provide drug sensitivity score values for the following items, in order.
1. NC(N)=Nc1nc(CSCC/C(N)=N/S(N)(=O)=O)cs1 [Famotidine]
2. CCCn1c(=O)c2[nH]cnc2n(-c2ccc(Cl)cc2)c1=O [arofylline]
3. NC(=O)Nc1sc(-c2ccc(F)cc2)cc1C(N)=O [TPCA-1]
4. NC(=O)OCC(COC(N)=O)c1ccccc1 [felbamate]
5. NC(N)=Nc1nc(CSCC/C(N)=N/S(N)(=O)=O)cs1 [famotidine]
6. Cn1c(C#N)ccc1-c1ccc2c(c1)C(C)(C)OC(=S)N2 [tanaproget]

0
0
4.7
0
0
6.3

Please give drug sensitivity score for each item listed below.
1. N[C@@H](C(=O)O)c1cc(O)cc(O)c1 [dihydroxyphenylglycine]
2. Ic1cncc(OC[C@@H]2CCN2)c1
3. CCC[C@H](Nc1nc(-c2ccc(NC(=O)NCC)c(OC)c2)ncc1C)c1cccnc1 [CYT-997]
4. O[C@@](Cc1nc(CC2(C(F)(F)F)CC2)c[nH]1)(c1ccc(-n2cccn2)cc1)C(F)(F)F [MK-5046]

1: 0; 2: 0; 3: 17.9; 4: 0

###

For each entry below, report its cell viability value.
Test system: U2OS
Assay notes: cell viability relative to DMSO; higher = less toxic
Condition details: 72 h; 100 nM
Give bare numbers, in %.

Please review the following examples before continuing.
Compound: Nc1[nH]cnc2ncnc1-2 [adenine]
System: U2OS
Assay value: 98.4

Compound: CC1(C)O[C@@H]2C[C@H]3[C@@H]4CCC5=CC(=O)C=C[C@]5(C)[C@@]4(F)[C@@H](O)C[C@]3(C)[C@]2(C(=O)CO)O1 [TRIAMCINOLONE ACETONIDE]
System: U2OS
Assay value: 94.6

Compound: C=C1CC[C@@H]2[C@](C)(CO)[C@H](O)CC[C@@]2(C)[C@@H]1C/C=C1/C(=O)OC[C@H]1O [andrographolide]
System: U2OS
Assay value: 102

Compound: CCN1C[C@H](C)n2c(c(O)c3c(=O)n(Cc4ccc(F)c(Cl)c4)nc(C(=O)NC)c32)C1=O [MK-2048]
System: U2OS
Assay value: 102

Parameters: items (list). Returns: cell viability for each item.
1. O=C([O-])c1ccccn1.O=C([O-])c1ccccn1.O=C([O-])c1ccccn1.[Cr+3] [chromium-picolinate]
2. CCCCCCCCCCCC(=O)N(CCO)CCO [lauric-diethanolamide]
3. O=C(O)C(Cl)Cl [dichloroacetate]

1. 98.6
2. 101
3. 97.4

Endpoint output: cell viability of COc1cc2c(cc1Cc1cccc(Cl)c1F)c(=O)c(C(=O)O)cn2[C@H](CO)C(C)C [elvitegravir] . Value? 92.8

###

Tested on: HepG2
Assay notes: cell viability relative to DMSO; higher = less toxic
Condition details: 72 h; 10000 nM
Observation type: cell viability (%)
Answers are plain numbers, in %.

Reference set, count: 2
Compound: CN(C)CCc1c[nH]c2ccc(Cn3cncn3)cc12
Units of measure: %
Assay value: 104

Compound: O=S1(=O)N[C@H]2CCCN2c2ccccc21
Units of measure: %
Assay value: 86.7

Provide reported cell viability for each item, in the same order as listed.
1. CCCCNC(=O)[C@@H]1Cc2ccccc2N1C(=O)[C@@H](N)CC [butabindide]
2. CC[C@H]1[C@@H](O)[C@@H]2[C@H](CC[C@]3(C)[C@@H]([C@H](C)CCC(=O)O)CC[C@@H]23)[C@@]2(C)CC[C@@H](O)C[C@@H]12
3. Nc1sc2c(c1C(=O)c1ccc(Cl)cc1)CCCC2
4. Oc1cc2c(cc1O)[C@H](Cc1cccc3ccccc13)NCC2
5. CCCC(=O)O[C@]1(C(=O)CCl)[C@@H](C)C[C@H]2[C@@H]3CCC4=CC(=O)C=C[C@]4(C)[C@@]3(F)C(=O)C[C@@]21C [clobetasone-butyrate]

1. 106
2. 105
3. 107
4. 84.8
5. 88.5

###

Test system: A549-ACE2
Assay notes: drug-induced phospholipidosis relative to tamoxifen; higher = more phospholipidosis
Condition details: 0.833333 µM; 24 h
Assignment: determine reported drug-induced phospholipidosis for the given compounds.
One number for each entry, in %.

Reference set (3 entries):
Compound: Nc1nc(O)c2[nH]nnc2n1 [azaguanine-8]
Units of measure: %
Assay value: -0.65

Compound: CC/C(=C(/c1ccc(OCCN(C)C)cc1)c1cccc(O)c1)c1ccccc1 [droloxifene]
Units of measure: %
Assay value: 14.1

Compound: CNCCCCOc1ccccc1Cc1ccccc1 [bifemelane]
Units of measure: %
Assay value: 1.11

We next turn to a different compound, shown below.
Sample CN1CCC(CNc2ccc3ncc(-c4cccc(OC(F)(F)F)c4)n3n2)CC1 [SGI-1776] — what was its drug-induced phospholipidosis? 2.67
